# assay: Half life in human liver microsomes at 29 umol/L preincubated for 5 mins followed by NADPH addition measured after 120 mins by HPLC analysis
# Type: ADME, Microsome
parameter: half-life at 29 µM (min)
Entry rule: numbers only, all in min.

Entry FC(F)(F)c1cc(C(F)(F)F)c2ccc3nc(-c4nnco4)cn3c2n1 ; half-life at 29 µM = 34.1

====

# assay: Antiviral activity against HBV genotype C infected in primary human hepatocytes PXB cells assessed as inhibition of viral DNA level after 14 days by qPCR analysis
# Format: functional, cell-based
# condition-details: Hepatitis B virus, 336 h
Collected IC50 values appear next to each entry.
Answer with the value and then the unit.

1) Cl.NCCOc1cc(C(F)(F)F)c2ccc3nc(-c4nnco4)cn3c2n1    10 µM

GET /value?item= Cl.O=C(NC1CCNCC1)c1cn2c(ccc3c(C(F)(F)F)cc(C(F)(F)F)nc32)n1 &field=IC50 returns 8.4 µM

====

# assay: Solubility of the compound by HPLC-UV analysis
# Format: physicochemical
parameter: solubility

These solved cases illustrate the format of a correct answer.
1. Cl.NCCOc1cc(C(F)(F)F)c2ccc3nc(C(=O)Nc4ccncc4)cn3c2n1    > 30000 µg/mL
2. Cl.O=C(NC1CCNCC1)c1cn2c(ccc3c(C(F)(F)F)cc(C(F)(F)F)nc32)n1    > 30000 µg/mL
3. O=C(Nc1cccnc1)c1cn2c(ccc3c(C(F)(F)F)cc(C(F)(F)F)nc32)n1    < 100 µg/mL
4. O=C(Nc1ccncc1)c1cn2c(ccc3c(C(F)(F)F)cc(C(F)(F)F)nc32)n1    < 100 µg/mL
5. FC(F)(F)c1cc(C(F)(F)F)c2ccc3nc(-c4nnco4)cn3c2n1    920 µg/mL
6. O=C(Nc1ccccn1)c1cn2c(ccc3c(C(F)(F)F)cc(C(F)(F)F)nc32)n1    < 100 µg/mL

Here is the next item to consider.
// solubility lookup, molecule = Cl.NCCOc1cc(C(F)(F)F)c2ccc3nc(-c4nnco4)cn3c2n1 , result: 19800 µg/mL

====

# assay: Half life in mouse liver microsomes at 29 umol/L preincubated for 5 mins followed by NADPH addition measured after 120 mins by HPLC analysis
# Format: ADME, Microsome
parameter: half-life at 29 µM (min)
Please give a number only; it is taken to be in min.

Entry FC(F)(F)c1cc(C(F)(F)F)c2ccc3nc(-c4nnco4)cn3c2n1 ; half-life at 29 µM = 58.2

====

Below, each entry is listed with its recorded Activity.
# assay: Cytotoxicity against human […] cells harboring R6FLR-N replicons after 3 days by XTT assay
# Type: cell-based
# Set-up: concentration or dose not given beside the values
# condition-details: 72 h
Quick note: give the figure in %, leave out the unit.

Example entries and their recorded answers appear below.
1. COCc1nnc(-c2cn3c(ccc4c(C(F)(F)F)cc(C(F)(F)F)nc43)n2)o1    -2.5
2. FC(F)(F)c1cc(C(F)(F)F)c2ccc3nc(-c4nnco4)cn3c2n1    3.1
3. O=C(Nc1ccccn1)c1cn2c(ccc3c(C(F)(F)F)cc(C(F)(F)F)nc32)n1    1.6
4. CCCc1nnc(-c2cn3c(ccc4c(C(F)(F)F)cc(C(F)(F)F)nc43)n2)o1    8.5
5. Cl.O=C(NC1CCNCC1)c1cn2c(ccc3c(C(F)(F)F)cc(C(F)(F)F)nc32)n1    58.6
6. OCc1nnc(-c2cn3c(ccc4c(C(F)(F)F)cc(C(F)(F)F)nc43)n2)o1    -7.4
7. Cc1nnc(-c2cn3c(ccc4c(C(F)(F)F)cc(C(F)(F)F)nc43)n2)o1    4.3
8. Cl.NCCOc1cc(C(F)(F)F)c2ccc3nc(C(=O)Nc4ccncc4)cn3c2n1    51.8

Record summary for O=C(Nc1ccncc1)c1cn2c(ccc3c(C(F)(F)F)cc(C(F)(F)F)nc32)n1 : reported Activity = 4.2

Quick note, Activity for O=C(Nc1cccnc1)c1cn2c(ccc3c(C(F)(F)F)cc(C(F)(F)F)nc32)n1 landed at 6.9

Per the records, this compound ( Cl.NCCOc1cc(C(F)(F)F)c2ccc3nc(-c4nnco4)cn3c2n1 ) has Activity equal to 5.7

From: ChEMBL document CHEMBL4330095
